Recorded values, source paper PMC8041284.

Can you tell me inhibition at 10 µM for the items I'm about to list?
- SYSTEM_UNDER_TEST: BTK (Homo sapiens)
- Sequence (Q06187 402-655 limits assumed): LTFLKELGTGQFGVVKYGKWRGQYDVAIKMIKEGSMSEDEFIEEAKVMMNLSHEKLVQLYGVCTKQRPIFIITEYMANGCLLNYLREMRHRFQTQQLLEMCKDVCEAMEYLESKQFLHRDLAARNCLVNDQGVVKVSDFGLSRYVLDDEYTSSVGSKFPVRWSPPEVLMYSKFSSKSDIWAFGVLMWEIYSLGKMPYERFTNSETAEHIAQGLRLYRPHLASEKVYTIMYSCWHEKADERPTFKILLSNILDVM
- EXPERIMENT: biochemical
- CONDITION_DETAILS: read-out: BTK inhibition (%), 0.75 uM BTK, […] probe 3l, 15 min preincubation
Answers are plain numbers, in %.

Return reported inhibition at 10 µM values for all items listed beneath this line.
1. CN[C@@H](C)C(=O)N[C@H]1CN(C(=O)CC(C)C)CC[C@H]2CC[C@@H](C(=O)NC(c3ccccc3)c3ccccc3)N2C1=O [PCM-0214841]
2. CCc1c(O)cc(O)c(C(=O)c2ccc(OCCN3CCOCC3)c(OC)c2)c1CC(=O)N(CCOC)CCOC [PCM-0095381]
3. O=C(O)CCc1ccc(O)cc1 [PCM-0215016]

RESULT:
[-9.3, 2.3, -17.9]
